// provenance: PubChem BioAssay (NCATS)

# System: AA1029
# Assay Text: qHTS profiling for inhibitors of Plasmodium falciparum proliferation (AID 504749); further: nearly all actives have a fitted effect of over 60% in size; further: potency means the concentration at half of the fitted maximal effect
# Condition: P. falciparum in erythrocytes, SYBR Green DNA, 72 h; series mostly up to 28.7 µM
# Experimental: NIH National Institute of Allergy and Infectious Diseases [NIAID] NIH Chemical Genomics Center [NCGC] […] Because mature erythrocytes lack DNA, only Plasmodium-derived DNA is detected. NCGC Assay Protocol Summary: The SYBR Green viability assay was adapted from a method described previously (Plouffe et al., 2008). […] The following morning, fluorescence intensity at 485(14) nm excitation and 535(25) nm emission wavelengths was measured on an EnVision (Perkin Elmer) plate reader. […]
Results filed as inconclusive are left out. Activity calls are given as the source filed them. The call rests on the fitted dose curve; in most records, active means well fitted inhibition curve with a large enough effect; inconclusive means small, poorly fitted or top-dose-only effect; inactive means flat fitted curve, though single readings scatter.
Assay Metric: Potency

Worked cases, Potency given:
* CN(C)CC[C@@](O)(c1ccccc1)c1ccccc1Cl | 4.47 µM (active)
* CC(CN1CC(=O)NC(=O)C1)N1CC(=O)NC(=O)C1 (stereo not given) | inactive
* CCCCC/C(C=O)=C/c1ccccc1 | inactive
* C=CCn1c(=O)n(C2OC(CO)C(O)C2O)c2nc(N)[nH]c(=O)c21 (stereo not given) | inactive
* Nc1ncn(C2C[C@H](O)[C@@H](CO)O2)c(=O)n1 (stereo not given in full) | inactive
* CCCCCCCCCCCCCCCC(=O)OCC(COP(=O)(O)OCC[N+](C)(C)C)OC(=O)CCCCCCCCCCCCCCC (stereo not given) | inactive

[ask] I would be grateful if you could share the reported Potency for CN1[C@@H]2CC[C@@H]1CC(OC(=O)[C@H](CO)c1ccccc1)C2 (stereo not given in full) .
[reply] inactive

[ask] Check `C[C@H](CN1c2ccccc2Sc2cccnc21)N(C)C` too.
[reply] 7.94 µM (active)

[ask] Check CC(=O)OC1C([N+]2(C)CCCCC2)C[C@H]2C3CC[C@H]4C[C@H](OC(C)=O)C([N+]5(C)CCCCC5)CC4(C)C3CCC12C (stereo not given in full) too.
[reply] inactive

[ask] Check OCC(CO)NC1C[C@](O)(CO)[C@@H](O)[C@H](O)[C@H]1O (stereo not given in full) too.
[reply] inactive

[ask] Check CCC(C(=O)C(C)C(O)C(C)CCc1ccc(C)c(O)c1C(=O)O)C1OC(CC)(C2CC[C@@](O)(CC)C(C)O2)CC1C (stereo not given in full) too.
[reply] 0.708 µM (active)

[ask] Check `CO/N=C(/C(=O)N[C@@H]1C(=O)N2C(C(=O)O)=C(CSc3cnns3)CS[C@H]12)c1csc(N)n1` too.
[reply] inactive

[ask] Check `CC1=C(c2ccc(NN=C(C#N)C#N)cc2)NNC(=O)C1` too.
[reply] inactive
